Recorded measurements of pKi, one per entry
Biological target: Adenosine receptor A1 (Homo sapiens, UniProt P30542)
Sequence (P30542 whole entry): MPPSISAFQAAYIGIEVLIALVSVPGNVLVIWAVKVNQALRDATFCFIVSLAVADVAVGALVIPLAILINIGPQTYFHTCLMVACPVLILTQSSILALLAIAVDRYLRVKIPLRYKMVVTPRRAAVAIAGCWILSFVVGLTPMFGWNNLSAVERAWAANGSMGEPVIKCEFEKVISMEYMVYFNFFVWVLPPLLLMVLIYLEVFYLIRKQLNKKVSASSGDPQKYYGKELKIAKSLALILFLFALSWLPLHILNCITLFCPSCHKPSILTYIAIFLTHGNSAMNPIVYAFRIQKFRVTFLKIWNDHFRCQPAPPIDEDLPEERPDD
Keep it numeric: pKi is minus log10 of the concentration in mol/L.

Just so you know, measured pKi for `Cc1ccc(C(=O)Nc2nc(Cl)c3cn(C(C)C)nc3n2)cc1` came out at 5.39

Just so you know, measured pKi for `CC(C)(C)Cn1cc2c(Cl)nc(NC(=O)c3ccc(F)cc3)nc2n1` came out at 4.78

# credit: ChEMBL document CHEMBL3112554
